These measurements were taken from PubChem BioAssay.

Some compounds, each annotated with its measured inhibition.
procedure-text: HDN33 neuroblastoma growth inhibition, cell-based, chromothripsis tumors, cisplatin or BGB combos (AID 1671450);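 note: cells exposed to compound for four days; 0% = vehicle DMSO and 100% = cell killing by high DMSO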
measurement-parameters: HDN33 neuroblastoma cells, single agent, at 5 µM, stronger effect = higher value
Provide the reading as a plain figure in %.

Completed entries (count: 5):
compound	unit-of-measure	inhibition
COc1cc(C2c3cc4c(cc3C(O)C3COC(=O)C23)OCO4)cc(OC)c1OC (stereo unspecified)	%	91.8
O=C1CCC[C@@H]2[C@H]3CCCN4CCC[C@@H](CN12)[C@@H]34	%	48.2
Cc1c2ccncc2c(C)c2c1[nH]c1ccccc12	%	86.5
Cn1c(CCCC(=O)O)nc2cc(N(CCCl)CCCl)ccc21	%	-57.4
Cn1c(COP(=O)(NCCBr)NCCBr)cnc1[N+](=O)[O-]	%	80.3

Note: attention shifts to another entry.
Given O=c1[nH]c(=O)n(C2OC(CO)C(O)C2O)cc1F (stereo unspecified) , state its recorded inhibition. 98.1

###

target: Mitogen-activated protein kinase 7 (Homo sapiens) (UniProt Q13164)
Sequence (Q13164 whole entry, looked up, the tested form may be a part): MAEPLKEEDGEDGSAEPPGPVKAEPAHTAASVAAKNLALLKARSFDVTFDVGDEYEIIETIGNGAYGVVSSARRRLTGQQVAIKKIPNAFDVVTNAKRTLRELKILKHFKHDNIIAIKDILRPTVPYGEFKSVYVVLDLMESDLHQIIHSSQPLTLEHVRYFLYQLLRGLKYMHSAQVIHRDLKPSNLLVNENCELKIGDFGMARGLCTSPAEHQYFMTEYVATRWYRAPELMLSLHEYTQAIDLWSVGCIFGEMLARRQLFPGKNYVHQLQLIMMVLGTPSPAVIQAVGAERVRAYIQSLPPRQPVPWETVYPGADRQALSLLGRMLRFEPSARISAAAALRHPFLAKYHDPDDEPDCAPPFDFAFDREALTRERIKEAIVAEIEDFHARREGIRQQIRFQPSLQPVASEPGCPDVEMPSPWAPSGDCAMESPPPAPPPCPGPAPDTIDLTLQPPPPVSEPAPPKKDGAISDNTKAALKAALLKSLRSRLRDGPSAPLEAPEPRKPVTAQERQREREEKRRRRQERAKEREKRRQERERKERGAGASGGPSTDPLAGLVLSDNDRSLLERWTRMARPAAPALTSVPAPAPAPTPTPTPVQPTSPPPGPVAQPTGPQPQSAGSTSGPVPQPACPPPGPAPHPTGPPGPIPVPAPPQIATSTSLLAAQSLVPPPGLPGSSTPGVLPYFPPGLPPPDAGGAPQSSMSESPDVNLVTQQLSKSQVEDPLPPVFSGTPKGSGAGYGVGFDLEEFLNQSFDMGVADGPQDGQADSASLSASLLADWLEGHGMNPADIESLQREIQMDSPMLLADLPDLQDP
procedure-text: ERK5 transactivation activators in reporter cells, primary screen, cell-based, HTS (AID 1508626);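 note: luciferase driven by Gal4-ERK5 fusion binding five Gal4 sites before minimal TATA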
measurement-parameters: HeLa Gal4-ERK5 transactivation, 18 h, at 5 µM
Calls of active or inactive are those of the source.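 Rule for the calls: active = luciferase signal above three times the same-plate solvent-only control wells; inactive = the rest.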
Your response should consist of one outcome taken from Yes = active, No = inactive

compound	class
CC(=O)CC1CCCCN1 (stereo unspecified)	No

Status in this test for "Nc1ncn[nH]1" ? No

Lookup CC(=O)OC1CCC23C(=O)OC45CCC(C6=CC(=O)OC6)C4(C)CCC2C5CCC3(O)C1 (stereo unspecified) No

Lookup "N#C[C@H](O[C@@H]1O[C@H](CO[C@@H]2O[C@H](CO)[C@@H](O)[C@H](O)[C@H]2O)[C@@H](O)[C@H](O)[C@H]1O)c1ccccc1" No

Lookup "[N-]=[N+]=CC(=O)OC[C@H](N)C(=O)O" No

###

procedure-text: HCT116 colon cancer cell growth inhibition, primary screen, CellTiter-Glo luminescence, NPC library (AID 1117342)
measurement-parameters: at 20 µM (top of the series)
Calls of active or inactive are those of the source.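 The calls were made as follows: active = compounds that lower survival of HCT116 colon cancer cells in the luminescence readout, no numeric limit stated; inactive = the rest.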
Your response should consist of one outcome taken from 1 for active, -1 for inactive

Solved entries:
molecule	class
CN1CCC(N(Cc2ccccc2)c2ccccc2)CC1	-1
COc1ccc(C(=O)c2c(C)n(CCN3CCOCC3)c3ccccc23)cc1	1
CC(C)C(Br)C(=O)NC(N)=O (stereo unspecified)	-1
O=c1[nH]oc2c1CCNC2	-1
O=C1NCN(c2ccccc2)C12CCN(CCCOc1ccc(F)cc1)CC2	1
C[C@H]1O[C@@H](O[C@H]2[C@@H](O)C[C@H](O[C@H]3[C@@H](O)C[C@H](O[C@H]4CC[C@@]5(C)[C@H](CC[C@@H]6[C@@H]5CC[C@]5(C)[C@@H](C7=CC(=O)OC7)CC[C@]65O)C4)O[C@@H]3C)O[C@@H]2C)C[C@H](O)[C@@H]1O	1

Status in this test for "CCN(CC)N(O)N=O" ? -1

Lookup COC(=O)c1cncn1C(C)c1ccccc1 (stereo unspecified) -1

Lookup "O=C(O)Cc1ccccc1" -1

Lookup "CC1(C)S[C@@H]2[C@H](N)C(=O)N2[C@@H]1C(=O)O" -1

Lookup CCNCC(O)c1cccc(O)c1 (stereo unspecified) -1

###

procedure-text: viability loss in pontine glioma line – cell-based, SU-DIPG-XXV, MIPE5.0, CellTiter-Glo, qHTS, dose response (AID 1347065);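 note: cells exposed to compound for 48 hours before ATP readout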
measurement-parameters: CellTiter-Glo ATP luminescence
Records with an inconclusive call do not appear. Active and inactive are the calls of the source. Cut-off not given; nearly all actives show AC50 up to about 26 µM.
Your response should consist of one outcome taken from active, inactive

Solved entries:
compound	class
CN1C(=O)[C@@H](NC(=O)[C@H](CCC(F)(F)F)[C@H](CCC(F)(F)F)C(N)=O)N=C(c2ccccc2)c2ccccc21	inactive
Fc1ccc(C(OCCN2CCN(CCCc3ccccc3)CC2)c2ccc(F)cc2)cc1	active
c1ccc2c(CN3CCNCC3)cccc2c1	inactive

Status in this test for "Cc1ccccc1-n1c(Cn2cnc3c(N)ncnc32)nc2cccc(C)c2c1=O" ? inactive

Lookup "C[C@]12CCC(=O)C(O)=C1CC[C@@H]1[C@@H]2CC[C@]2(C)C(=O)CC[C@@H]12" inactive

Lookup "CC(C)(O)/C=C\C(=O)[C@](C)(O)[C@H]1[C@H](O)C[C@]2(C)[C@@H]3CC=C4[C@@H](C=C(O)C(=O)C4(C)C)[C@]3(C)C(=O)C[C@@]12C" active

Lookup "CC(C)C[C@H](CN)CC(=O)O" inactive

Lookup "CC(C)[C@]12O[C@H]1[C@@H]1O[C@]13[C@]1(O[C@H]1C[C@H]1C4=C(CC[C@@]13C)C(=O)OC4)[C@@H]2O" active

Lookup "C[C@@]12OC(=O)[C@]1([C@@H](O)[C@@H]1C=CCCC1)NC(=O)[C@@H]2CCCl" active

Lookup "C=C1C[C@@H]2[C@H](CC[C@]3(C)C(=O)CC[C@@H]23)[C@@]2(C)C=CC(=O)C=C12" inactive

Lookup "O=c1[nH]c2ccc(Cl)cc2c(N[C@@H]2CN3CCC2CC3)c1-c1nc2ccccc2[nH]1" active

Lookup "C[C@]12Cc3cn[nH]c3C[C@@H]1CC[C@@H]1[C@@H]2CC[C@@]2(C)[C@H]1CC[C@]2(C)O" inactive

###

Some compounds, each annotated with its measured growth inhibition.
procedure-text: antimalarial activity against Dd2 strain (AID 2302);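 note: 0% = DMSO untreated growth and 100% = chloroquine plus artemisinin killed control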
measurement-parameters: P. falciparum Dd2 in RBCs, LDH growth readout, 72 h; at 2 µM; stronger effect = higher value
Provide the reading as a plain figure in %.

compound	growth inhibition [%]
O=C(/C=C/c1ccc(Cl)c(Cl)c1)NCCCCCN1C2CCC1CC(c1c[nH]c3ccccc13)C2 (stereo not drawn)	4

Given "O=C(/C=C/c1ccc(Cl)c(Cl)c1)N1CC[C@H]2C[C@H](N3CCC(c4c[nH]c5ccccc45)CC3)CC[C@@H]2C1" , state its recorded growth inhibition. 99

Lookup COc1ccc(CC(C)NCC(O)c2cccc(Br)c2)cc1 (stereo not drawn) 93

Lookup CC(Cc1ccc(OCCCCOc2ccccc2)cc1)NCCCc1nc2ccccc2[nH]1 (stereo not drawn) 67

Lookup "c1ccc(C(OCCC2CCN(Cc3cccnc3)CC2)c2ccccc2)cc1" 98

Lookup "CC[C@H]1CN2CCc3cc(OC)c(OC)cc3[C@@H]2C[C@@H]1C[C@H]1NCCc2c1cc(OC)c(OC)c2Br" 97

Lookup Cc1[nH]c2ccccc2c1C1=CCN(CCCCCC23CCCc4cccc(c42)NC3=O)CC1 (stereo not drawn) 91

Lookup "N=c1c2c(n(Cc3ccc(Cl)cc3Cl)c3c1CCC3)CCCC2" 73

Lookup O=C(/C=C/c1ccc(Cl)c(Cl)c1)N1CCC(CN2[C@@H]3CC[C@H]2CC(c2c[nH]c4ccccc24)C3)CC1 (stereo partly drawn) 66

###

Some compounds, each annotated with its measured log fold change Tl+ flux.
Tested on: R275C/Slo1WT/beta2
procedure-text: modulators of BK channel variants, profiling panel, selectivity assay, cell-based, U2OS BacMam, thallium flux, beta subunits (AID 1259406);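 note: initial slope of Thallos dye fluorescence rise after thallium is added; log ratio against the mean of 0.3% DMSO vehicle wells on the same plate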
measurement-parameters: at 30 µM
// response body must contain only the number

compound	readout-type	quantitative-result
Clc1ccc(CON=C(Cn2ccnc2)c2ccc(Cl)cc2Cl)c(Cl)c1	log fold change Tl+ flux	0.0197
C#CCN(C)[C@H](C)Cc1ccccc1	log fold change Tl+ flux	-0.00101

Given "Cc1ccc(S(=O)(=O)N2CN3CCN(C3)C2)cc1" , state its recorded log fold change Tl+ flux. 0.0283

Lookup "Oc1cc(Cl)ccc1Oc1ccc(Cl)cc1Cl" -0.125

Lookup COC(=O)N1CCN(C(=O)Cc2ccc(Cl)c(Cl)c2)C(CN2CCCC2)C1 (centres undefined) 0.0529

Lookup "COc1cc2c(cc1OC)[C@@]13CCN4CC5=CCO[C@H]6CC(=O)N2[C@H]1[C@H]6[C@H]5C[C@H]43" -0.0314

Lookup "N#CC(C#N)=Cc1cccnc1" -0.0203

Lookup "O=C(O)C(Cl)Cl" -0.0385

Lookup "C[N+]1(C)CCN(c2ccccc2)CC1" -0.0166

Lookup CC12CCC(=O)C=C1CCC1C2CCC2(C)C(O)CCC12 (centres undefined) -0.0485

Lookup "COc1ccc2[nH]cc(CCN)c2c1" 0.00615

Lookup "CN1C(=O)CN=C(c2ccccc2)c2cc(Cl)ccc21" 0.0176

Lookup "C[N+]1(CCC(C(N)=O)(c2ccccc2)c2ccccc2)CCCCC1" 0.0123

Lookup "C[C@]12CCC(=O)C[C@@H]1CC[C@@H]1[C@@H]2CC[C@@]2(C)[C@H]1CC[C@]2(C)O" 0.012

Lookup NC(=O)CS(=O)C(c1ccccc1)c1ccccc1 (centres undefined) 0.0297

Lookup "CN1CCN(C(=O)O[C@H]2c3nccnc3C(=O)N2c2ccc(Cl)cn2)CC1" -0.0138

Lookup "COc1cccc([C@@]2(O)CCCC[C@@H]2CN(C)C)c1" 0.0567

Lookup CN1C(=O)COc2c(C(=O)NC3CN4CCC3CC4)cc(Cl)cc21 (centres undefined) -0.0098

Lookup CC1CCC[C@H](O)CCCCCc2cc(O)cc(O)c2C(=O)O1 (some centres undefined) 0.035

Lookup "Oc1cc2c(cc1O)[C@H]1c3ccccc3CN[C@@H]1CC2" 0.0271
